# System: Ba/F3-EGFR-WT cells
# assaySummary: Proliferation assay in BA/F3 (wild type) cells (Cell Titer-Glo)
# Type: cell-based
# setupConditions: Mus musculus, BaF3, Table 10, plated with 10 ng/mL EGF, 48 h
Sorting guide: entries reporting IC50 beneath 2000 nM go in the fulfilled pile, the rest go in the not fulfilled pile.

CC(C)(COc1cnccc1-c1[nH]c2c(c1Nc1cccc(F)c1OC(F)F)C(=O)NCC2)N1CCOCC1: not fulfilled

INPUT: Field: below-cutoff. Rule: recorded IC50 strictly less than 2000 nM. Subject: `COc1c(F)cccc1Nc1c(-c2ccncc2OCCN2CCOCC2)[nH]c2c1C(=O)NCC2`
OUTPUT: not fulfilled

INPUT: Next entry: `CC(C)(COc1cnccc1-c1[nH]c2c(c1Nc1cccc(F)c1)C(=O)NCC2)N1CCOCC1`
OUTPUT: not fulfilled

INPUT: Next entry: `Cc1c(F)cccc1Nc1c(-c2ccncc2OC[C@@H]2CCCN2C)[nH]c2c1C(=O)NCC2`
OUTPUT: fulfilled

INPUT: Next entry: `Cc1c(F)cc(F)cc1Nc1c(-c2ccncc2OC[C@@H]2CCCN2C)[nH]c2c1C(=O)NCC2`
OUTPUT: not fulfilled

INPUT: Next entry: `O=C1NCCc2[nH]c(-c3ccncc3OCCN3CCOCC3)c(Nc3cccc(Cl)c3OC(F)F)c21`
OUTPUT: not fulfilled

INPUT: Next entry: `CN1CCC[C@H]1COc1cnccc1-c1[nH]c2c(c1Nc1cccc(F)c1)C(=O)NCC2`
OUTPUT: fulfilled

INPUT: Next entry: `O=C1NCCc2[nH]c(-c3ccncc3OCc3ccccc3)c(Nc3cccc(F)c3)c21`
OUTPUT: not fulfilled

INPUT: Next entry: `COc1c(F)cccc1Nc1c(-c2ccncc2OCC(C)(C)N2CCOCC2)[nH]c2c1C(=O)NCC2`
OUTPUT: not fulfilled
